Procedure text: gradient 5% acetonitrile 3 min, to 50% in 2 min, to 85% in 15 min, held 3 min, 100 µL/min
Measurement conditions: column: Zorbax Extend-C18 2.1 x 50 mm; eluents: water / acetonitrile, 0.1% formic acid
Value type: RP-LC retention time (s)

{"columns": ["Molecule", "Experimental value"],
 "data": [
  ["CC(C)CC(=O)Nc1ccc(-n2cnc(C(=O)N3CC(C)CC(C)C3)c2)nc1 (configuration not stated)", 839],
  ["CCOc1cccc(C2CC(=O)NC3=C2C(=O)C(C(=O)OC)C(C)C3)c1 (configuration not stated)", 750],
  ["CS(=O)(=O)Nc1ccc(-c2noc(-c3cnccn3)n2)cc1", 686],
  ["O=C(NC1CCCCC1)C1CCN(c2cn[nH]c(=O)c2)C1 (configuration not stated)", 614],
  ["Cc1noc(-c2cccc(OC3CN(C(=O)NCc4ccccc4)C3)c2)n1", 830],
  ["CCNC(=O)CN1CCN(Cc2ccccc2F)C1=O", 658],
  ["CCN1c2cc(F)ccc2C(=O)NC12CCN(C(=O)c1cccc(C)c1)CC2", 824]
]}
